Species on record: Mus musculus
protocol_description: In vitro immunosuppressive activity in murine splenic T cells
Assay type: functional, cell-based
condition_set: T-cell
Listing of entries alongside the reported IC50.
I only need the number, in nM, no unit after it.

| smiles_str | assay_endpoint | recorded_measurement |
| --- | --- | --- |
| CC[C@@H]1/C=C(\C)C[C@H](C)C[C@H](OC)[C@H]2O[C@@](O)(C(=O)C(=O)N3CCCC[C@H]3C(=O)O[C@H](/C(C)=C/[C@@H]3CC[C@@H](OCC(=O)c4ccccc4)[C@H](OC)C3)[C@H](C)[C@@H](O)CC1=O)[C@H](C)C[C@@H]2OC | IC50 | 0.27 |

Turning now to a further record.
Exercise: // Input: C=C(CO[C@@H]1CC[C@@H](/C=C(\C)[C@H]2OC(=O)[C@@H]3CCCCN3C(=O)C(=O)[C@]3(O)O[C@H]([C@@H](OC)C[C@@H](C)C/C(C)=C/[C@@H](CC)C(=O)C[C@H](O)[C@H]2C)[C@@H](OC)C[C@H]3C)C[C@H]1OC)c1ccccc1 . Output its IC50 only.
Key: 1
